// provenance: the RNAGym collection of RNA variant scans (doi:10.7554/elife.80360)

B1: Twister Ribozyme (parent)
chain: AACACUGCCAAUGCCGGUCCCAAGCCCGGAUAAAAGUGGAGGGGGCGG

- Variants of: B1
- method_description: self-cleavage, relative activity (ratio to wild type); higher = more cleavage; co-transcriptional
# self-cleavage per record follows

{"columns": ["variant_key", "self-cleavage"],
 "data": [
  ["C9G", 0.733],
  ["A2C C27G", 0.0549],
  ["G13A A34C", 0.173],
  ["C26G G29C", 0.134],
  ["A10C G43C", 0.201],
  ["C8U G47C", 0.199],
  ["A40C G45C", 0.154],
  ["G16U G17C", 0.105],
  ["U18C C25U", 0.16],
  ["C5U G42U", 0.134],
  ["G7C G17U", 0.0545],
  ["C5G G24C", 0.118],
  ["G43A G48U", 0.291],
  ["A1G C26A", 0.244],
  ["G24U G42C", 0.0781],
  ["C3A C20U", 0.403],
  ["C15A A22C", 0.533],
  ["C15A U31G", 0.76],
  ["G43A G45U", 0.305],
  ["U6G", 0.486],
  ["C15G C19A", 0.0812],
  ["G17U G42U", 0.126]
]}
